system: Fibroblast; assay: Multiplex assay against human fibroblast; format: toxicity, cell-based; details: 48 h, 10 µM, compound concentration 10 uM, replicate 1
Give Population Mitotic Cells (%) for every item shown.
Record the value in %, omitting the unit from your answer.

Response field Population Mitotic Cells (%) (Fibroblast) for item CN1CCN(c2cc(-c3ccccc3)nc(N)n2)CC1 : 59

Response field Population Mitotic Cells (%) (Fibroblast) for item N#Cc1c(Oc2cccc(OS(=O)(=O)CCCC(F)(F)F)c2)cccc1C(F)(F)F : 47

Response field Population Mitotic Cells (%) (Fibroblast) for item Cc1c(CC(=O)O)c2cccnc2n1Cc1ccc(S(C)(=O)=O)cc1C(F)(F)F : 26

Response field Population Mitotic Cells (%) (Fibroblast) for item CC(C)c1noc(N2CCC(COc3ccc(-c4ccc(S(C)(=O)=O)cc4)nc3)CC2)n1 : 36

Response field Population Mitotic Cells (%) (Fibroblast) for item N#Cc1cc(F)cc(-c2nc(-c3ccc(F)cn3)no2)c1 : 16
